# Test system: Escherichia coli TOP10;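 further: peptides expressed intracellularly from a pBAD plasmid library in pooled LB shake-flask culture, induced with 0.3% L-arabinose, DNA abundance read by NGS, three biological replicates, DESeq2 with apeglm shrinkage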
# protocol: shrunken log2 fold change of peptide-encoding DNA abundance (4.5 h post-induction vs induction); higher = less antimicrobial activity (less host growth inhibition)
# particulars: time post-induction: 4.5 h; library: site-saturation at positions 5, 18, 19, 20
observable: shrunken log2 fold change

item.sequence	measured.target	recorded.value
RRIRVRPPRLPRPRPRPECIPRP	Escherichia coli TOP10	-0.0283
RRIRSRPPRLPRPRPRPISNPRP	Escherichia coli TOP10	-0.338
RRIRPRPPRLPRPRPRPRINPRP	Escherichia coli TOP10	-0.16
RRIRDRPPRLPRPRPRPTIDPRP	Escherichia coli TOP10	0.607
RRIRMRPPRLPRPRPRPKIVPRP	Escherichia coli TOP10	0.0132
RRIRDRPPRLPRPRPRPTTRPRP	Escherichia coli TOP10	0.542
RRIRWRPPRLPRPRPRPQTCPRP	Escherichia coli TOP10	0.108
RRIRGRPPRLPRPRPRPFNPPRP	Escherichia coli TOP10	-0.439
RRIRNRPPRLPRPRPRPEYKPRP	Escherichia coli TOP10	-0.203
RRIRERPPRLPRPRPRPDFNPRP	Escherichia coli TOP10	-0.175
RRIRYRPPRLPRPRPRPILGPRP	Escherichia coli TOP10	-0.00192
RRIRDRPPRLPRPRPRPPRGPRP	Escherichia coli TOP10	1.31
RRIRRRPPRLPRPRPRPWYIPRP	Escherichia coli TOP10	-0.595
RRIRVRPPRLPRPRPRPMLDPRP	Escherichia coli TOP10	-0.215
RRIRPRPPRLPRPRPRPCVYPRP	Escherichia coli TOP10	-0.22
RRIRYRPPRLPRPRPRPEVHPRP	Escherichia coli TOP10	-0.187
RRIRWRPPRLPRPRPRPHWGPRP	Escherichia coli TOP10	0.171
RRIRVRPPRLPRPRPRPLTVPRP	Escherichia coli TOP10	0.0473
RRIRQRPPRLPRPRPRPPTKPRP	Escherichia coli TOP10	0.209
RRIRARPPRLPRPRPRPHVRPRP	Escherichia coli TOP10	-0.0112
RRIRNRPPRLPRPRPRPLHKPRP	Escherichia coli TOP10	-0.101
RRIRWRPPRLPRPRPRPSQSPRP	Escherichia coli TOP10	-0.0797
RRIRARPPRLPRPRPRPCLPPRP	Escherichia coli TOP10	0.0185
RRIRYRPPRLPRPRPRPNCRPRP	Escherichia coli TOP10	-0.134
RRIRVRPPRLPRPRPRPDWEPRP	Escherichia coli TOP10	0.00682
RRIRWRPPRLPRPRPRPLTGPRP	Escherichia coli TOP10	-0.396
RRIRPRPPRLPRPRPRPVQYPRP	Escherichia coli TOP10	-0.0191
RRIRHRPPRLPRPRPRPFIGPRP	Escherichia coli TOP10	-0.231
RRIRHRPPRLPRPRPRPEVCPRP	Escherichia coli TOP10	0.116
RRIRYRPPRLPRPRPRPVRDPRP	Escherichia coli TOP10	-0.123
RRIRDRPPRLPRPRPRPPWDPRP	Escherichia coli TOP10	0.442
RRIRGRPPRLPRPRPRPNIQPRP	Escherichia coli TOP10	0.398
